test system: MOLT-4 cells; experiment: MOLT-4 cell viability using MTT assay; format: cell-based; details: Homo sapiens, MOLT-4, 48 h, 48 h exposure
VALUE_KIND: IC50 (nM)

[I] Cc1c(Nc2nc3ccccc3s2)nnc2c1CCCN2c1nc(C(=O)O)c(CCCOc2ccc(C#CCN3CCC(N4CCCCC4)CC3)cc2F)s1
[II] Cc1c(Nc2nc3ccccc3s2)nnc2c1CCCN2c1ccc(-c2cnn(CC34CC5(C)CC(C)(C3)CC(OCCN(C)C)(C5)C4)c2C)c(C(=O)O)n1
[III] Cc1c(Nc2nc3ccccc3s2)nnc2c1CCCN2c1cccc(C(=O)O)n1
[IV] Cc1c(Nc2nc3ccccc3s2)nnc2c1CCCN2c1nc(C(=O)O)c(CCCOc2ccc(CCCN3CCCC3)cc2F)s1
Order by IC50, smallest first, the items presented above. Reply with the labels, ordered as the question asks. II, I, IV, III

----------
Tested on: MOLT-4 cells
Test: MOLT-4 cell viability using MTT assay
Assay type: cell-based
Conditions: Homo sapiens, MOLT-4, 48 h, 48 h exposure
Description: MTT colorimetric assay is based on the mitochondrial reduction of tetrazolium salt by living cells. Cells were cultured at 37° C. in a humidified atmosphere containing 5% CO2. […] At the end of incubation time, 15 μL of MTT solution (5 mg/ml) were added per well and the cells were incubated for another 4 h. […] IC50s were calculated using standard four-parametric curve fitting.
pIC50: −log10 of the molar value.
VALUE_KIND: pIC50

[
  {
    "COMPOUND": "Cc1c(Nc2nc3ccccc3s2)nnc2c1CCCN2c1nc(C(=O)O)c(CCCOc2ccc(C#CCN3CCCC3)cc2F)s1 [Example 42]",
    "TARGET_OR_SYSTEM": "MOLT-4 cells",
    "pIC50": 9.49
  }
]

[a] Cc1c(Nc2nc3ccccc3s2)nnc2c1CCCN2c1ccc(-c2cnn(CC34CC5(C)CC(C)(CC(CCCN(C)C)(C5)C3)C4)c2C)c(C(=O)O)n1 [Example 167]
[b] Cc1c(Nc2nc3ccccc3s2)nnc2c1CCCN2c1nc(C(=O)O)c(CCCOc2ccc(CCCN3C[C@@H]4[C@H](C3)C4(F)F)cc2F)s1 [Example 72]
// task: argmin of pIC50 over [ a , b ] Write down the label of the entry you select. b
(b: 7.86, a: 10.27)

----------
tested on: MOLT-4 cells; assay: MOLT-4 cell viability using MTT assay; type: cell-based; conditions: Homo sapiens, MOLT-4, 48 h, 48 h exposure
pIC50: −log10 of the molar value.
VALUE_KIND: pIC50

Example molecules with recorded pIC50:
[
  {
    "MOLECULE": "Cc1c(Nc2nc3ccccc3s2)nnc2c1CCCN2c1nc(C(=O)O)c(CCCOc2ccc(CCCCN(C)C)cc2F)s1 [Example 62]",
    "VALUE_KIND": "pIC50",
    "EXPERIMENTAL_RESULT": 7.69
  },
  {
    "MOLECULE": "COCCCC1(Cn2ncc(-c3sc(N4CCc5c4nnc(Nc4nc6ccccc6s4)c5C)nc3C(=O)O)c2C)CCCCC1 [Example 17]",
    "VALUE_KIND": "pIC50",
    "EXPERIMENTAL_RESULT": 6.89
  }
]

[I] Cc1c(Nc2nc3ccccc3s2)nnc2c1CCCN2c1nc(C(=O)O)c(CCCOc2ccc(C#CCN3CCC4(CC3)CNC(=O)C4)cc2F)s1 [Example 58]
[II] Cc1c(Nc2nc3ccccc3s2)nnc2c1CCCN2c1ccc(-c2cnn(CC34CC5CC(C3)CC(OCCN(C)C)(C5)C4)c2C)c(C(=O)O)n1 [Example 154]
[III] COCCCC1(Cn2ncc(-c3sc(N4CCc5c4nnc(Nc4nc6ccccc6s4)c5C)nc3C(=O)O)c2C)CCCCCCC1 [Example 14]
[IV] Cc1c(Nc2nc3ccccc3s2)nnc2c1CCCN2c1nc(C(=O)O)c(CCCOc2ccc(C#CCN3CCCC(F)(F)C3)cc2F)s1 [Example 50]
Rank order required: pIC50, descending. Return value: ordered labels per request. II, I, IV, III

----------
system: MOLT-4 cells; experiment: MOLT-4 cell viability using MTT assay; format: cell-based; conditions: Homo sapiens, MOLT-4, 48 h, 48 h exposure
VALUE_KIND: IC50 (nM)

Illustrative cases are given below, each with its answer.
[
  {
    "MOLECULE": "Cc1c(Nc2nc3ccccc3s2)nnc2c1CCCN2c1nc(C(=O)O)c(CCCOc2ccc(C#CCN(C)C)cc2Br)s1 [Example 59]",
    "IC50, nM": 3.36
  },
  {
    "MOLECULE": "Cc1c(Nc2nc3ccccc3s2)nnc2c1CCCN2c1ccc(-c2cnn(CC34CC5(C)CC(C)(C3)CC(OCCNC(CO)CO)(C5)C4)c2C)c(C(=O)O)n1 [Example 135]",
    "IC50, nM": 3.05
  },
  {
    "MOLECULE": "CNCC#Cc1ccc(OCCCc2sc(N3CCc4c3nnc(Nc3nc5ccccc5s3)c4C)nc2C(=O)O)c(F)c1 [Example 37]",
    "IC50, nM": 4.61
  }
]

[A] Cc1c(Nc2nc3ccccc3s2)nnc2c1CCCN2c1nc(C(=O)O)c(CCCOc2ccc(CCCN3CCN(C)CC3)cc2F)s1 [Example 68]
[B] Cc1c(Nc2nc3ccccc3s2)nnc2c1CCCN2c1ccc(-c2cnn(CC34CC5(C)CC(C)(C3)CC(OCCN3CCCC3)(C5)C4)c2C)c(C(=O)O)n1 [Example 127]
Hi team, can someone confirm which has the larger IC50: A or B ? Thanks. Answer by stating the label of the chosen item. A
(A: 2.91 nM, B: 0.137 nM)

----------
system: MOLT-4 cells; assay: MOLT-4 cell viability using MTT assay; assay type: cell-based; settings: Homo sapiens, MOLT-4, 48 h, 48 h exposure
VALUE_KIND: IC50 (nM)

[
  {
    "COMPOUND": "Cc1c(Nc2nc3ccccc3s2)nnc2c1CCCN2c1nc(C(=O)O)c(CCCOc2ccc(C#CCNCCN(C)C)cc2F)s1",
    "IC50 [nM]": 0.74
  }
]

[1] CC(=O)N(C)CC#Cc1ccc(OCCCc2sc(N3CCCc4c3nnc(Nc3nc5ccccc5s3)c4C)nc2C(=O)O)c(F)c1
[2] Cc1c(Nc2nc3ccccc3s2)nnc2c1CCCN2c1nc(C(=O)O)c(CCCOc2ccc(C#CCN(C)C)cc2)s1
[3] Cc1c(Nc2nc3ccccc3s2)nnc2c1CCCN2c1nc(C(=O)O)c(CCCOc2ccc(C#CC(C)N3CCN(C)CC3)cc2F)s1 (stereo not shown)
[4] Cc1c(Nc2nc3ccccc3s2)nnc2c1CCCN2c1nc(C(=O)O)c(CCCOc2ccc(CCCN3CCCCC3)cc2F)s1
[5] Cc1c(Nc2nc3ccccc3s2)nnc2c1CCN2c1nc(C(=O)O)cs1
Rank the 5 compounds: largest IC50 first, smallest last. Output the labels ranked as instructed. 5, 4, 1, 3, 2

----------
system: MOLT-4 cells; assay: MOLT-4 cell viability using MTT assay; assay type: cell-based; conditions: Homo sapiens, MOLT-4, 48 h, 48 h exposure
pIC50: −log10 of the molar value.
VALUE_KIND: pIC50

Some compounds with recorded pIC50:
[
  {
    "COMPOUND": "CNCCCCc1ccc(OCCCc2sc(N3CCCc4c3nnc(Nc3nc5ccccc5s3)c4C)nc2C(=O)O)c(F)c1 [Example 75]",
    "EXPERIMENTAL_RESULT": 8.01
  },
  {
    "COMPOUND": "Cc1c(Nc2nc3ccccc3s2)nnc2c1CCN2c1nc(C(=O)O)c(-c2cnn(CC34CC5CC(CC(C5)C3)C4)c2C)s1 [Example 13]",
    "EXPERIMENTAL_RESULT": 6.90
  },
  {
    "COMPOUND": "Cc1c(Nc2nc3ccccc3s2)nnc2c1CCCN2c1nc(C(=O)O)c(CCCOc2ccc(C#CCNCC[C@H](O)CO)cc2F)s1 [Example 129]",
    "EXPERIMENTAL_RESULT": 8.51
  }
]

[1] Cc1c(Nc2nc3ccccc3s2)nnc2c1CCCN2c1ccc(-c2cnn(CC34CC5(C)CC(C)(C3)CC(OCCNCCS(=O)(=O)O)(C5)C4)c2C)c(C(=O)O)n1 [Example 96]
[2] Cc1c(Nc2nc3ccccc3s2)nnc2c1CCCN2c1nc(C(=O)O)c(CCCOc2ccc(C#CCN(C(C)C)C(C)C)cc2F)s1 [Example 86]
Given the listed items, does 1 or 2 have the lesser reported pIC50? Identify your selection by its label. 1

----------
tested on: MOLT-4 cells; test: MOLT-4 cell viability using MTT assay; type: cell-based; settings: Homo sapiens, MOLT-4, 48 h, 48 h exposure
VALUE_KIND: IC50 (nM)

[1] Cc1c(Nc2nc3ccccc3s2)nnc2c1CCCN2c1nc(C(=O)O)c(CCCOc2ccc(C#CCN3CCCC(O)C3)cc2F)s1 (stereo not shown) [Example 55]
[2] Cc1c(Nc2nc3ccccc3s2)nnc2c1CCCN2c1ccc(-c2cnn(CC34CC5(C)CC(C)(C3)CC(OCCN(C)CCCCO)(C5)C4)c2C)c(C(=O)O)n1 [Example 153]
[3] Cc1ccc2sc(Nc3nnc4c(c3C)CCCN4c3ccc(-c4cnn(CC56CC7(C)CC(C)(C5)CC(OCCN5CCCC5)(C7)C6)c4C)c(C(=O)O)n3)nc2c1 [Example 179]
[4] COC(=O)c1nc(N2CCCc3c2nnc(Nc2nc4ccccc4s2)c3C)sc1CCCOc1ccc(C#CCN)cc1F [Example 126]
[5] Cc1c(Nc2nc3ccccc3s2)nnc2c1CCCN2c1nc(C(=O)O)c(CCCOc2ccc(I)cc2F)s1 [Example 77]
# ascending order, key=IC50 List the labels in the requested order. 3, 2, 1, 4, 5
(3: 0.0916 nM, 2: 0.229 nM, 1: 0.949 nM, 4: 53.3 nM, 5: 226 nM)

[P] Cc1c(Nc2nc3ccccc3s2)nnc2c1CCCN2c1nc(C(=O)O)c(CCCOc2ccc(C#CCN(CC[C@H](O)CO)CC[C@H](O)CO)cc2F)s1 [Example 125]
[Q] Cc1c(Nc2nc3ccccc3s2)nnc2c1CCCN2c1ccc(-c2cnn(CC34CC5CC(C3)CC(OCCN3CCCC3)(C5)C4)c2C)c(C(=O)O)n1 [Example 155]
[R] Cc1c(Nc2nc3ccccc3s2)nnc2c1CCCN2c1nc(C(=O)O)c(CCCOc2cc(C#CCN(C)C)ccc2F)s1 [Example 78]
[S] COc1ccc2sc(Nc3nnc4c(c3C)CCCN4c3ccc(-c4cnn(CC56CC7(C)CC(C)(C5)CC(OCCN5CCCC5)(C7)C6)c4C)c(C(=O)O)n3)nc2c1 [Example 180]
Ordering criterion: IC50; begin with the maximum. Lab note: record answer as labels in requested order. P, R, Q, S

[A] Cc1c(Nc2nc3ccccc3s2)nnc2c1CCCN2c1nc(C(=O)O)c(CCCOc2ccc(C#CC3(N(C)C)CCCCC3)cc2F)s1 [Example 84]
[B] Cc1c(Nc2nc3ccccc3s2)nnc2c1CCCN2c1nc(C(=O)O)c(CCCOc2ccc(CN)cc2F)s1 [Example 35]
Which value of IC50 is greater, the one for A or the one for B ? Your answer should be the label attached to the chosen record. B

[I] CNCC#Cc1ccc(OCCCc2sc(N3CCCc4c3nnc(Nc3nc5ccccc5s3)c4C)nc2C(=O)O)cc1 [Example 80]
[II] Cc1c(Nc2nc3ccccc3s2)nnc2c1CCCN2c1nc(C(=O)O)c(CCCOc2ccc(OCCN3CCCC3)cc2)s1 [Example 52]
I'm curious, which of these has a smaller IC50 number: I or II ? Give the label of your selection. I
(I: 0.575 nM, II: 2.42 nM)
